Target: Met (Homo sapiens, UniProt P08581)
Sequence (P08581 25-1390): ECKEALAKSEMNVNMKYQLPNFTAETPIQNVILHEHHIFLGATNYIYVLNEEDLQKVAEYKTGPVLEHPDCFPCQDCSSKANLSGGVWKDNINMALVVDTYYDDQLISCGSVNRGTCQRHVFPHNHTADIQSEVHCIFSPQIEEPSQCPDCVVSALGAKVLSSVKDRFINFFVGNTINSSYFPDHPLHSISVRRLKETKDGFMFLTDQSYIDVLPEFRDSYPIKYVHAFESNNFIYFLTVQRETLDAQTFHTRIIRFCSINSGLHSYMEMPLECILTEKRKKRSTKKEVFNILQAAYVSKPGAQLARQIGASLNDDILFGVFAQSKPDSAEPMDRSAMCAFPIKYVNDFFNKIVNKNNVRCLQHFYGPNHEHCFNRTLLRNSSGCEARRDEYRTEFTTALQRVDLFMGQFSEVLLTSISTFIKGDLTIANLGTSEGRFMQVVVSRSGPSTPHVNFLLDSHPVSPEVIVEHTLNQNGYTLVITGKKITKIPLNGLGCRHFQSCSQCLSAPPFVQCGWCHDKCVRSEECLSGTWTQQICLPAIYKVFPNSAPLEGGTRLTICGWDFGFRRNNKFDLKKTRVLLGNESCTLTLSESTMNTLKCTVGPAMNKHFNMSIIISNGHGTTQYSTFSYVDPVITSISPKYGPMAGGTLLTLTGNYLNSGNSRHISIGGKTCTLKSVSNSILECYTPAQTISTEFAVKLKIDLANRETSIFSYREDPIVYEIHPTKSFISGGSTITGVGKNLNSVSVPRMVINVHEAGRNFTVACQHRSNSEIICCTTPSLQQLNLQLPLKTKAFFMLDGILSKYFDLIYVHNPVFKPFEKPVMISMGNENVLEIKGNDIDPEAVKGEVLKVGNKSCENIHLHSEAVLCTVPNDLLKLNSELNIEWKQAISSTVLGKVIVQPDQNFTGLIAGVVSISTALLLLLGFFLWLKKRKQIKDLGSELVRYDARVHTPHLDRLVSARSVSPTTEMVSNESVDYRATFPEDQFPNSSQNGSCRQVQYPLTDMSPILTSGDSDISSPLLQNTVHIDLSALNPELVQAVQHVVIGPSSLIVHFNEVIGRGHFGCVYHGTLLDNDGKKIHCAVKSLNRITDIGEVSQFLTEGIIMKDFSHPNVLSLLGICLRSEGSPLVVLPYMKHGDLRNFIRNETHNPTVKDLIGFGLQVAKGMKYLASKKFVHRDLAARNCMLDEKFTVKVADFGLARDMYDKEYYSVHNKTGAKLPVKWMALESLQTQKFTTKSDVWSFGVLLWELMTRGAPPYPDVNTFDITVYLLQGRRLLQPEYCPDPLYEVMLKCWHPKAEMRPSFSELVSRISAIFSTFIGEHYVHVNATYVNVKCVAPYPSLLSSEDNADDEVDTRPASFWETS
Test: Met autophosphorylation ELISA in PC-3 cells
Type: cell-based
Design: endogenous in cells; host or cells: PC-3 prostate cancer cells (ATCC #CRL-1435)
Conditions: cellular activity, HGF-stimulated, phospho-Met ELISA, read-out: c-Met IC50
pIC50: −log10 of the molar value.
pIC50 for assorted compounds
assayEndpoint: pIC50

> print(dat)
                                   compound  recordedvalue
1  O=C(Nc1ccc(F)cc1)C1(C(=O)Nc2ccc(Oc3ccnc4cc(-c5cnn(C6CCNCC6)c5)ccc34)cc2)CC1 [Compound 60]   7.00 to 8.00
2  O=C(Nc1ccc(F)cc1)C1(C(=O)Nc2ccc(Oc3ccnc4cc(-c5ccnnc5)ccc34)cc2)CC1 [Compound 28]         ≥ 8.00
3  Cc1cc(-c2ccc3c(Oc4ccc(NC(=O)C5(C(=O)Nc6ccc(F)cc6)CC5)cc4)ccnc3c2)ccn1 [Compound 30]   7.00 to 8.00
4  O=C(Nc1ccc(F)cc1)C1(C(=O)Nc2ccc(Oc3ccnc4cc(-c5cncnc5)ccc34)cc2)CC1 [Compound 27]   7.00 to 8.00
